RECORDED_CONDITIONS: 293.15 K; 35000 kPa; Liquid; Vibrating tube method
A collection of molecules and their measured mass density
VALUE_TYPE: mass density (kg/m3)

> print(dat)
                         molecule    value.type  unit.info  meas.value
1              CCCO [propan-1-ol]  mass density      kg/m3       826.5
2  COC(=O)OC [dimethyl carbonate]  mass density      kg/m3     1098.34
3                   CCO [ethanol]  mass density      kg/m3       815.8
4                   CO [methanol]  mass density      kg/m3      819.32

----------
RECORDED_CONDITIONS: 303.15 K; 25000 kPa; Liquid; Vibrating tube method
VALUE_TYPE: mass density (kg/m3)

> print(dat)
                         compound  meas.value
1                            CCCO      813.48
2                              CO      804.08
3  COC(=O)OC [dimethyl carbonate]     1078.99
4                             CCO      801.26

----------
RECORDED_CONDITIONS: 303.15 K; 15000 kPa; Liquid; Vibrating tube method
VALUE_TYPE: mass density (kg/m3)

> print(dat)
                         compound  unit.info  meas.value
1                             CCO      kg/m3      793.71
2                              CO      kg/m3      795.85
3                            CCCO      kg/m3      806.69
4  COC(=O)OC [dimethyl carbonate]      kg/m3     1070.49

----------
RECORDED_CONDITIONS: 308.15 K; 100 kPa; Liquid; Vibrating tube method
VALUE_TYPE: mass density (kg/m3)

> print(dat)
                         molecule  unit.info  meas.value
1  COC(=O)OC [dimethyl carbonate]      kg/m3     1049.91
2                              CO      kg/m3      777.09
3                            CCCO      kg/m3      791.31
4                             CCO      kg/m3       776.6

----------
A collection of compounds and their measured mass density
RECORDED_CONDITIONS: 288.15 K; 5000 kPa; Liquid; Vibrating tube method
VALUE_TYPE: mass density (kg/m3)

> print(dat)
                         compound  meas.value
1                             CCO      798.18
2  COC(=O)OC [dimethyl carbonate]     1081.15
3                              CO      800.57
4                            CCCO      811.32

----------
A collection of compounds and their measured mass density
RECORDED_CONDITIONS: 288.15 K; 15000 kPa; Liquid; Vibrating tube method
VALUE_TYPE: mass density (kg/m3)

> print(dat)
                         compound    value.type  meas.value
1                             CCO  mass density      806.02
2  COC(=O)OC [dimethyl carbonate]  mass density     1089.52
3                              CO  mass density      808.85
4                            CCCO  mass density      817.95

----------
RECORDED_CONDITIONS: 293.15 K; 10000 kPa; Liquid; Vibrating tube method
VALUE_TYPE: mass density (kg/m3)

> print(dat)
                         compound    value.type  meas.value
1              CCCO [propan-1-ol]  mass density       810.8
2                   CO [methanol]  mass density      800.47
3                   CCO [ethanol]  mass density      797.88
4  COC(=O)OC [dimethyl carbonate]  mass density     1078.93

----------
A collection of compounds and their measured mass density
RECORDED_CONDITIONS: 298.15 K; 20000 kPa; Liquid; Vibrating tube method
VALUE_TYPE: mass density (kg/m3)

> print(dat)
                         compound    value.type  meas.value
1  COC(=O)OC [dimethyl carbonate]  mass density      1080.9
2                              CO  mass density      804.18
3                            CCCO  mass density      813.78
4                             CCO  mass density       801.4

----------
RECORDED_CONDITIONS: 288.15 K; 40000 kPa; Liquid; Vibrating tube method
A collection of compounds and their measured mass density
VALUE_TYPE: mass density (kg/m3)

> print(dat)
                         compound  meas.value
1              CCCO [propan-1-ol]      832.73
2                   CCO [ethanol]      822.29
3                   CO [methanol]      827.04
4  COC(=O)OC [dimethyl carbonate]      1107.4

----------
RECORDED_CONDITIONS: 308.15 K; 30000 kPa; Liquid; Vibrating tube method
± gives the expanded uncertainty stated by the source.
A collection of compounds and their measured mass density
VALUE_TYPE: mass density

> print(dat)
                         compound           meas.value
1              CCCO [propan-1-ol]   813.03 ± 0.6 kg/m3
2                   CCO [ethanol]   801.06 ± 0.6 kg/m3
3                   CO [methanol]  803.73 ± 0.59 kg/m3
4  COC(=O)OC [dimethyl carbonate]  1077.1 ± 0.61 kg/m3

----------
RECORDED_CONDITIONS: 303.15 K; 30000 kPa; Liquid; Vibrating tube method
VALUE_TYPE: mass density (kg/m3)

> print(dat)
                         compound  meas.value
1                            CCCO      816.64
2                             CCO      804.81
3                              CO      807.78
4  COC(=O)OC [dimethyl carbonate]      1082.9

----------
RECORDED_CONDITIONS: 288.15 K; 20000 kPa; Liquid; Vibrating tube method
VALUE_TYPE: mass density (kg/m3)

> print(dat)
                         compound    value.type  unit.info  meas.value
1                              CO  mass density      kg/m3      812.92
2  COC(=O)OC [dimethyl carbonate]  mass density      kg/m3     1093.35
3                            CCCO  mass density      kg/m3      821.27
4                             CCO  mass density      kg/m3      809.69

----------
A collection of compounds and their measured mass density
RECORDED_CONDITIONS: 293.15 K; 5000 kPa; Liquid; Vibrating tube method
VALUE_TYPE: mass density (kg/m3)

> print(dat)
                         compound    value.type  meas.value
1                            CCCO  mass density      807.24
2  COC(=O)OC [dimethyl carbonate]  mass density     1074.62
3                             CCO  mass density      793.83
4                              CO  mass density      795.97

----------
RECORDED_CONDITIONS: 303.15 K; 20000 kPa; Liquid; Vibrating tube method
VALUE_TYPE: mass density (kg/m3)

> print(dat)
                         molecule  meas.value
1              CCCO [propan-1-ol]      810.14
2                   CO [methanol]      800.16
3                   CCO [ethanol]      797.54
4  COC(=O)OC [dimethyl carbonate]     1074.79
